- system_name: T1, human BACE1 (R&D Systems) (human, UniProt P56817)
- T1 construct: recombinant, commercial (R&D Systems)
- assay_method_text: SPR (Biacore)
assay_metric: pKd
To interpret pKd, take it as minus log10 of a concentration measured in moles per litre.

{"columns": ["binder", "assay_metric", "experimental_value"],
 "data": [
  ["5894 (antibody, V domains shown, anti-BACE1 IgG) VH: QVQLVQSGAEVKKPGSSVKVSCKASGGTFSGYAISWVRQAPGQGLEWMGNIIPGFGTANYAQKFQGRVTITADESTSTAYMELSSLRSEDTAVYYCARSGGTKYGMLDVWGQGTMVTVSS VL: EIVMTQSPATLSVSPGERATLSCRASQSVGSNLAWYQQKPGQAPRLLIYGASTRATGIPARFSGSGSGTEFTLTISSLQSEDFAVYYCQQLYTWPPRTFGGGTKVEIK", "pKd", 8.53]
]}

Request: So what does the record say about pKd for 5890 (antibody, V domains shown, anti-BACE1 IgG) VH: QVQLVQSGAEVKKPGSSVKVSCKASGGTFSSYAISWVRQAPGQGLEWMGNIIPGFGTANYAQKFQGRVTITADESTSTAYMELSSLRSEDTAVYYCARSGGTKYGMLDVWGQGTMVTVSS VL: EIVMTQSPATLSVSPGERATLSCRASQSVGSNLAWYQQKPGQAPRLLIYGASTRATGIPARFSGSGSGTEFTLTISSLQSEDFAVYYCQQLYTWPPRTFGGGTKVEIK ?
Response: 8.49

Request: pKd for 5893 (antibody, V domains shown, anti-BACE1 IgG) VH: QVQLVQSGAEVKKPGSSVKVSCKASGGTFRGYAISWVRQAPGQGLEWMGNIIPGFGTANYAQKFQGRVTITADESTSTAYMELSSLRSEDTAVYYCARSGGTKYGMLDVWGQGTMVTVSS VL: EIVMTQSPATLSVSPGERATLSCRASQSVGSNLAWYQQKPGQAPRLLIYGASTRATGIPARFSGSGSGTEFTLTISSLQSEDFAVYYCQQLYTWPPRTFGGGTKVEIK ?
Response: 8.56

Request: Recorded pKd of 5892 (antibody, V domains shown, anti-BACE1 IgG) VH: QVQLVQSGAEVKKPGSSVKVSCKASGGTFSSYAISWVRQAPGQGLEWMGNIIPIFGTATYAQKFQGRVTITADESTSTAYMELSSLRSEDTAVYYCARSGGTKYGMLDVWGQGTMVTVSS VL: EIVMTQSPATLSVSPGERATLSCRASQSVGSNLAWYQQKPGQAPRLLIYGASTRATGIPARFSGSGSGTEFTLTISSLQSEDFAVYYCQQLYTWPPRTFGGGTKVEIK , please.
Response: 8.53

Request: Item 5905 (antibody, V domains shown, anti-BACE1 IgG) VH: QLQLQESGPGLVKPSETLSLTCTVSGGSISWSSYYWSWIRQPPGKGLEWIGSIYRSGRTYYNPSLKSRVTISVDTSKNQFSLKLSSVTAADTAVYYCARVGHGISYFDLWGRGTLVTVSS VL: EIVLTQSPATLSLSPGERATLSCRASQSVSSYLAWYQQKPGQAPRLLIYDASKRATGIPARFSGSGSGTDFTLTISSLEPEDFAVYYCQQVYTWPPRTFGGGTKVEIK has what recorded pKd?
Response: 8.45

Request: Look at this binder and give its reported pKd. 5888 (antibody, V domains shown, anti-BACE1 IgG) VH: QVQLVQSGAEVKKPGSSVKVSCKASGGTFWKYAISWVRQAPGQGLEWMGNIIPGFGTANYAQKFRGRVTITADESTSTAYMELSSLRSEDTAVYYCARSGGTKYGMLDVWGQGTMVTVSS VL: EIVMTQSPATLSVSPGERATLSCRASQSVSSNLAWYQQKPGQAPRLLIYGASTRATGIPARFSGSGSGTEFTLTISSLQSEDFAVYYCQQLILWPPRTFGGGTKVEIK
Response: 8.37

Request: Give the measured pKd of 5896 (antibody, V domains shown, anti-BACE1 IgG) VH: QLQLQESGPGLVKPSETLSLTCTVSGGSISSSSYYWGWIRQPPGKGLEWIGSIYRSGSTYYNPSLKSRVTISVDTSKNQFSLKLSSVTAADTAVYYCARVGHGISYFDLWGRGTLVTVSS VL: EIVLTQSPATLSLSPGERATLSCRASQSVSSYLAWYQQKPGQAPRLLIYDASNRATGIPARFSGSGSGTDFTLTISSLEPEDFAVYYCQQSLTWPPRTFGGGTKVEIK .
Response: 8.47

Request: Please look up its pKd: 5897 (antibody, V domains shown, anti-BACE1 IgG) VH: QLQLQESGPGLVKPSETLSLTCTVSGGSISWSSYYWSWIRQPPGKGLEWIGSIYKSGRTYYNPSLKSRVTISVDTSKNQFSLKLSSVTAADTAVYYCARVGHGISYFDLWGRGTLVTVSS VL: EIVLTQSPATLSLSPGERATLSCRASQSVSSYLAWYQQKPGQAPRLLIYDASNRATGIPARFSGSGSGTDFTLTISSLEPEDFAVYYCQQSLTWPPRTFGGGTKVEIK
Response: 8.68

Request: Reported pKd for 5930 (antibody, V domains shown, anti-BACE1 IgG) VH: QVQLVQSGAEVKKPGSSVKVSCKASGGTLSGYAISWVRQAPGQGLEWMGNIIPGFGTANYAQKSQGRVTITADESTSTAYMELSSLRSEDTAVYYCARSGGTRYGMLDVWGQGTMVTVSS VL: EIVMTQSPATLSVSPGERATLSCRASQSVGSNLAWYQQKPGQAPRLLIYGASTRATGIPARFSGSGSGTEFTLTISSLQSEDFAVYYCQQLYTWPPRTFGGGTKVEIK : what is it?
Response: 8.19

Request: Query: pKd; subject: 5891 (antibody, V domains shown, anti-BACE1 IgG) VH: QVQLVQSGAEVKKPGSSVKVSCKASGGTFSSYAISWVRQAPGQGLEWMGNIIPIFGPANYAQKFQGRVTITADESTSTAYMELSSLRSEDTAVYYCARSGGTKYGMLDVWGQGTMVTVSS VL: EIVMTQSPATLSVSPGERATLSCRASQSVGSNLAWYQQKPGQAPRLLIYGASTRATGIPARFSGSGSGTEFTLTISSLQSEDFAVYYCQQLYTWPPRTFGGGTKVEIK
Response: 8.48
